tested on: Escherichia coli TOP10; test: shrunken log2 fold change of peptide-encoding DNA abundance (4.5 h post-induction vs induction); higher = less antimicrobial activity (less host growth inhibition); conditions: time post-induction: 4.5 h; library: site-saturation at positions 5, 18, 19, 20
Catalogue of shrunken log2 fold change readings, one per entry.
Could you respond with only the numeric value?

RECORD SEQUENCE: RRIRWRPPRLPRPRPRPTRMPRP
TARGET OF ASSAY: Escherichia coli TOP10
shrunken log2 fold change: 0.381

RECORD SEQUENCE: RRIRLRPPRLPRPRPRPIHCPRP
TARGET OF ASSAY: Escherichia coli TOP10
shrunken log2 fold change: -0.0842

RECORD SEQUENCE: RRIRIRPPRLPRPRPRPWTEPRP
TARGET OF ASSAY: Escherichia coli TOP10
shrunken log2 fold change: -0.843

RECORD SEQUENCE: RRIRWRPPRLPRPRPRPWDFPRP
TARGET OF ASSAY: Escherichia coli TOP10
shrunken log2 fold change: -0.2

RECORD SEQUENCE: RRIRLRPPRLPRPRPRPRQSPRP
TARGET OF ASSAY: Escherichia coli TOP10
shrunken log2 fold change: -0.0892

RECORD SEQUENCE: RRIRKRPPRLPRPRPRPEIQPRP
TARGET OF ASSAY: Escherichia coli TOP10
shrunken log2 fold change: -0.0762

*Q* Please report the measured shrunken log2 fold change for `RRIRRRPPRLPRPRPRPWMGPRP` tested on Escherichia coli TOP10.
*A* -0.127

*Q* Please report the measured shrunken log2 fold change for `RRIRCRPPRLPRPRPRPPRVPRP` tested on Escherichia coli TOP10.
*A* 0.935

---

tested on: Escherichia coli TOP10; assay: shrunken log2 fold change of peptide-encoding DNA abundance (4.5 h post-induction vs induction); higher = less antimicrobial activity (less host growth inhibition); conditions: time post-induction: 4.5 h; library: site-saturation at positions 5, 18, 19, 20
Classes by shrunken log2 fold change: band A = under -0.2, band B = from -0.2 up to -0.007, band C = -0.007 and over

RECORD SEQUENCE: RRIRPRPPRLPRPRPRPCCYPRP
TARGET OF ASSAY: Escherichia coli TOP10
CLASS LABEL: band A
//
RECORD SEQUENCE: RRIRRRPPRLPRPRPRPSDRPRP
TARGET OF ASSAY: Escherichia coli TOP10
CLASS LABEL: band B
//
RECORD SEQUENCE: RRIRWRPPRLPRPRPRPCSYPRP
TARGET OF ASSAY: Escherichia coli TOP10
CLASS LABEL: band B
//
RECORD SEQUENCE: RRIRTRPPRLPRPRPRPCTHPRP
TARGET OF ASSAY: Escherichia coli TOP10
CLASS LABEL: band B
//
RECORD SEQUENCE: RRIRFRPPRLPRPRPRPCHCPRP
TARGET OF ASSAY: Escherichia coli TOP10
CLASS LABEL: band B

*Q* Textbook exercise: identify the category of the sequence given here, `RRIRNRPPRLPRPRPRPGCLPRP` , according to its measured value.
*A* band C

*Q* Textbook exercise: identify the category of the sequence given here, `RRIRMRPPRLPRPRPRPVCQPRP` , according to its measured value.
*A* band C

*Q* Textbook exercise: identify the category of the sequence given here, `RRIRCRPPRLPRPRPRPVCLPRP` , according to its measured value.
*A* band B

*Q* Textbook exercise: identify the category of the sequence given here, `RRIRTRPPRLPRPRPRPHQAPRP` , according to its measured value.
*A* band C

---

tested on: Escherichia coli TOP10; assay: shrunken log2 fold change of peptide-encoding DNA abundance (4.5 h post-induction vs induction); higher = less antimicrobial activity (less host growth inhibition); conditions: time post-induction: 4.5 h; library: site-saturation at positions 5, 18, 19, 20
Classes by shrunken log2 fold change: class A: < -0.2; class B: ≥ -0.2 and < 0.4; class C: ≥ 0.4

RECORD SEQUENCE: RRIRKRPPRLPRPRPRPDEAPRP
CLASS LABEL: class C

RECORD SEQUENCE: RRIRARPPRLPRPRPRPMAYPRP
CLASS LABEL: class C

RECORD SEQUENCE: RRIRIRPPRLPRPRPRPIWMPRP
CLASS LABEL: class B

*Q* Textbook exercise: identify the category of the sequence given here, `RRIRGRPPRLPRPRPRPRQKPRP` , according to its measured value.
*A* class C

*Q* Textbook exercise: identify the category of the sequence given here, `RRIRMRPPRLPRPRPRPLTNPRP` , according to its measured value.
*A* class B

*Q* Textbook exercise: identify the category of the sequence given here, `RRIRARPPRLPRPRPRPTWWPRP` , according to its measured value.
*A* class C

*Q* Textbook exercise: identify the category of the sequence given here, `RRIRPRPPRLPRPRPRPVRQPRP` , according to its measured value.
*A* class B

*Q* Textbook exercise: identify the category of the sequence given here, `RRIRFRPPRLPRPRPRPMLEPRP` , according to its measured value.
*A* class B

---

system: Escherichia coli TOP10; test: shrunken log2 fold change of peptide-encoding DNA abundance (4.5 h post-induction vs induction); higher = less antimicrobial activity (less host growth inhibition); conditions: time post-induction: 4.5 h; library: site-saturation at positions 5, 18, 19, 20
Rule: shrunken log2 fold change under 0.1 gives rule not met, otherwise rule met.

Record excerpt, results attached:
RECORD SEQUENCE: RRIRIRPPRLPRPRPRPKWIPRP
CLASS LABEL: rule not met

RECORD SEQUENCE: RRIRMRPPRLPRPRPRPAFFPRP
CLASS LABEL: rule met

*Q* Given `RRIRHRPPRLPRPRPRPPDQPRP` , state whether its shrunken log2 fold change is at least 0.1.
*A* rule met

*Q* Given `RRIRGRPPRLPRPRPRPLANPRP` , state whether its shrunken log2 fold change is at least 0.1.
*A* rule met

---

tested on: Escherichia coli TOP10; assay: shrunken log2 fold change of peptide-encoding DNA abundance (4.5 h post-induction vs induction); higher = less antimicrobial activity (less host growth inhibition); conditions: time post-induction: 4.5 h; library: site-saturation at positions 5, 18, 19, 20
Catalogue of shrunken log2 fold change readings, one per entry.

RECORD SEQUENCE: RRIRPRPPRLPRPRPRPWCNPRP
TARGET OF ASSAY: Escherichia coli TOP10
shrunken log2 fold change: -0.239
--
RECORD SEQUENCE: RRIRVRPPRLPRPRPRPCGGPRP
TARGET OF ASSAY: Escherichia coli TOP10
shrunken log2 fold change: -0.0341
--
RECORD SEQUENCE: RRIRKRPPRLPRPRPRPFHCPRP
TARGET OF ASSAY: Escherichia coli TOP10
shrunken log2 fold change: -0.0128
--
RECORD SEQUENCE: RRIRARPPRLPRPRPRPIKYPRP
TARGET OF ASSAY: Escherichia coli TOP10
shrunken log2 fold change: -0.38

*Q* Fill in reported shrunken log2 fold change for this entry: `RRIRMRPPRLPRPRPRPYGSPRP`
*A* -0.0489

*Q* Fill in reported shrunken log2 fold change for this entry: `RRIRKRPPRLPRPRPRPMPVPRP`
*A* -0.00341

*Q* Fill in reported shrunken log2 fold change for this entry: `RRIRYRPPRLPRPRPRPTQTPRP`
*A* 0.0249

*Q* Fill in reported shrunken log2 fold change for this entry: `RRIRLRPPRLPRPRPRPYFCPRP`
*A* -0.34

---

Catalogue of shrunken log2 fold change readings, one per entry.
tested on: Escherichia coli TOP10; experiment: shrunken log2 fold change of peptide-encoding DNA abundance (4.5 h post-induction vs induction); higher = less antimicrobial activity (less host growth inhibition); settings: time post-induction: 4.5 h; library: site-saturation at positions 5, 18, 19, 20;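 also: peptides expressed intracellularly from a pBAD plasmid library in pooled LB shake-flask culture, induced with 0.3% L-arabinose, DNA abundance read by NGS, three biological replicates, DESeq2 with apeglm shrinkage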
Could you respond with only the numeric value?

RECORD SEQUENCE: RRIRDRPPRLPRPRPRPQWLPRP
ASSAY VALUE: 0.24

RECORD SEQUENCE: RRIRHRPPRLPRPRPRPTICPRP
ASSAY VALUE: -0.41

RECORD SEQUENCE: RRIRGRPPRLPRPRPRPLISPRP
ASSAY VALUE: 0.364

RECORD SEQUENCE: RRIRCRPPRLPRPRPRPKGTPRP
ASSAY VALUE: 0.0259

RECORD SEQUENCE: RRIRSRPPRLPRPRPRPSNNPRP
ASSAY VALUE: -0.66

RECORD SEQUENCE: RRIRLRPPRLPRPRPRPYEMPRP
ASSAY VALUE: -0.468

RECORD SEQUENCE: RRIRVRPPRLPRPRPRPYRQPRP
ASSAY VALUE: -0.479

RECORD SEQUENCE: RRIRGRPPRLPRPRPRPNIGPRP
ASSAY VALUE: 0.138

*Q* Fill in reported shrunken log2 fold change for this entry: `RRIRQRPPRLPRPRPRPFFFPRP`
*A* 0.0337

*Q* Fill in reported shrunken log2 fold change for this entry: `RRIRQRPPRLPRPRPRPNHNPRP`
*A* -0.893

*Q* Fill in reported shrunken log2 fold change for this entry: `RRIRDRPPRLPRPRPRPKVYPRP`
*A* -0.0329

*Q* Fill in reported shrunken log2 fold change for this entry: `RRIRFRPPRLPRPRPRPWDVPRP`
*A* -0.0811

*Q* Fill in reported shrunken log2 fold change for this entry: `RRIRKRPPRLPRPRPRPNTAPRP`
*A* 0.159

*Q* Fill in reported shrunken log2 fold change for this entry: `RRIRARPPRLPRPRPRPSMLPRP`
*A* 0.0741

*Q* Fill in reported shrunken log2 fold change for this entry: `RRIRDRPPRLPRPRPRPEICPRP`
*A* 0.023

Sourced from the supplement of paper PMC9112550
